// data source = ChEMBL document CHEMBL4680243

tested on: Influenza A virus; assay: Antiviral activity against Influenza A virus (A/PR 8/34 (H1N1)) infected in MDCK cells assessed as reduction in virus-induced cytopathic effect measured after 72 hrs by microscopic analysis; assay type: functional, organism-based; conditions: A/Puerto Rico/8/1934(H1N1)
pEC50: −log10 of the molar value.
quantity: pEC50

> print(dat)
                                   molecule  qual  numeric.result
1  CCC(C)N(C(=O)[C@H](CC(=O)OC)NC(=O)OC(C)(C)C)C1(C(=O)NCc2ccccc2)CCN(Cc2ccccc2)CC1 (stereo partly specified)     <            4.00
2  COC(=O)C[C@H](NC(=O)OC(C)(C)C)C(=O)N(Cc1ccc([N+](=O)[O-])cc1)C1(C(=O)NCc2ccccc2)CCN(Cc2ccccc2)CC1     =            5.00
3  CC(C)(C)OC(=O)N[C@@H](CC(=O)O)C(=O)N(Cc1ccc(F)cc1)C1(C(=O)NCc2ccccc2)CCNCC1     <            4.00
4  CC(C)(C)OC(=O)N[C@@H](CC(N)=O)C(=O)N(Cc1ccccc1)C1(C(=O)NCc2ccccc2)CCN(Cc2ccccc2)CC1     =            5.20
5  C[C@H](NC(=O)OC(C)(C)C)C(=O)N(Cc1ccc(F)cc1)C1(C(=O)NCc2ccccc2)CCN(Cc2ccccc2)CC1     =            5.00
6  CC[C@H](C)[C@H](NC(=O)OCc1ccccc1)C(=O)N(C1CC1)C1(C(=O)NCc2ccccc2)CCN(Cc2ccccc2)CC1     =            5.29

---

tested on: Influenza A virus; assay: Antiviral activity against Influenza A virus (A/PR 8/34 (H1N1)) clone 1 infected in MDCK cells assessed as reduction in virus-induced cytopathic effect measured after 72 hrs by microscopic analysis; type: functional, organism-based; conditions: A/Puerto Rico/8/1934(H1N1)
pEC50: −log10 of the molar value.
Listing: pEC50 of selected compounds
quantity: pEC50

> print(dat)
                            compound.string  qual  numeric.result
1  COC(=O)C[C@H](NC(=O)OC(C)(C)C)C(=O)N(Cc1ccc(F)cc1)C1(C(=O)NCc2ccccc2)CCN(Cc2ccccc2)CC1     <            4.00
2  NC(=O)c1ncn([C@@H]2O[C@H](CO)[C@@H](O)[C@H]2O)n1     =            4.96

---

assay: Cytotoxicity against MDCK cells assessed as reduction in cell viability measured after 72 hrs by MTS assay; format: cell-based, Canis lupus familiaris; conditions: dog
quantity: CC50 at 72 h (µM)

> print(dat)
                                   compound  qual  numeric.result
1  CC(C)(C)OC(=O)N[C@@H](CC(N)=O)C(=O)N(Cc1ccc(F)cc1)C1(C(=O)NCc2ccccc2)CCN(Cc2ccccc2)CC1     >             100
2  CC[C@H](C)[C@H](NC(=O)OC(C)(C)C)C(=O)N(Cc1ccccc1)C1(C(=O)NCc2ccccc2)CCN(Cc2ccccc2)CC1     >             100
3  COC(=O)C[C@H](NC(=O)OCc1ccccc1)C(=O)N(Cc1ccc(F)cc1)C1(C(=O)NCc2ccccc2)CCN(Cc2ccccc2)CC1     =             1.9
4  COC(=O)C[C@H](NC(=O)OC(C)(C)C)C(=O)N(Cc1ccc(F)cc1)C1(C(=O)NCc2ccccc2)CCN(c2ccccc2)CC1     =             8.2
5  CC[C@H](C)[C@H](NC(=O)OCc1ccccc1)C(=O)N(C1CC1)C1(C(=O)NC(C)(C)C)CCN(Cc2ccccc2)CC1     =              59
6  COC(=O)C[C@H](NC(=O)OC(C)(C)C)C(=O)N(CCNc1ccccc1)C1(C(=O)NCc2ccccc2)CCN(Cc2ccccc2)CC1     =              68
7  COC(=O)C[C@H](NC(=O)OC(C)(C)C)C(=O)N(Cc1ccc(F)cc1)C1(C(=O)NCc2ccccc2)CC[N+](C)(Cc2ccccc2)CC1 (some centres not stated)     =              55
